This collection of values is drawn from the supplement of paper PMC9112550.

Collected shrunken log2 fold change values appear next to each entry.
# System: Escherichia coli TOP10
# measurement notes: shrunken log2 fold change of peptide-encoding DNA abundance (4.5 h post-induction vs induction); higher = less antimicrobial activity (less host growth inhibition)
# condition info: time post-induction: 4.5 h; library: site-saturation at positions 5, 18, 19, 20

Below: 2 sequences and their reported shrunken log2 fold change.
| sequence record | measurement type | measurement |
| --- | --- | --- |
| RRIRARPPRLPRPRPRPEQAPRP | shrunken log2 fold change | 0.759 |
| RRIRCRPPRLPRPRPRPMTGPRP | shrunken log2 fold change | -0.103 |

Please find the next sequence below.
Provide shrunken log2 fold change, tested on Escherichia coli TOP10, for RRIRQRPPRLPRPRPRPYLSPRP .
0.00493

---

# Test system: Escherichia coli TOP10;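 further: peptides expressed intracellularly from a pBAD plasmid library in pooled LB shake-flask culture, induced with 0.3% L-arabinose, DNA abundance read by NGS, three biological replicates, DESeq2 with apeglm shrinkage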
# measurement notes: shrunken log2 fold change of peptide-encoding DNA abundance (4.5 h post-induction vs induction); higher = less antimicrobial activity (less host growth inhibition)
# condition info: time post-induction: 4.5 h; library: site-saturation at positions 5, 18, 19, 20
Note to self: class labels come from recorded shrunken log2 fold change, ranges listed here: LOW (below -0.1), MEDIUM (-0.1 to below 0.03), HIGH (0.03 or more)

| sequence record | system | qualitative label |
| --- | --- | --- |
| RRIRQRPPRLPRPRPRPCPMPRP | Escherichia coli TOP10 | LOW |
| RRIRMRPPRLPRPRPRPMWRPRP | Escherichia coli TOP10 | MEDIUM |
| RRIRSRPPRLPRPRPRPHAKPRP | Escherichia coli TOP10 | LOW |
| RRIRDRPPRLPRPRPRPIGKPRP | Escherichia coli TOP10 | LOW |

Tag the class for RRIRTRPPRLPRPRPRPGVEPRP
MEDIUM

Assign a category based on measured shrunken log2 fold change for RRIRNRPPRLPRPRPRPDEQPRP and give only the class name.
MEDIUM

Category lookup for the sequence RRIRWRPPRLPRPRPRPGILPRP
HIGH

Please indicate the class for RRIRGRPPRLPRPRPRPGQPPRP based on its shrunken log2 fold change.
HIGH

Place this sequence in its band: RRIRLRPPRLPRPRPRPFYAPRP
LOW

For the record RRIRYRPPRLPRPRPRPNRVPRP , report the class its shrunken log2 fold change corresponds to.
LOW

Which class holds RRIRFRPPRLPRPRPRPQERPRP ?
MEDIUM

Each sequence maps to one class by shrunken log2 fold change. Which class for RRIRTRPPRLPRPRPRPGCWPRP ?
HIGH

Place this sequence in its band: RRIRYRPPRLPRPRPRPNMHPRP
LOW

GET /class?item= RRIRWRPPRLPRPRPRPENFPRP
MEDIUM

For this sequence, which bin applies? RRIRFRPPRLPRPRPRPQKRPRP
HIGH

Into which category would you place RRIRVRPPRLPRPRPRPRFGPRP ?
HIGH

Class (by measured shrunken log2 fold change) for RRIRMRPPRLPRPRPRPKDSPRP
HIGH

For the record RRIRQRPPRLPRPRPRPSTWPRP , report the class its shrunken log2 fold change corresponds to.
LOW

Each sequence maps to one class by shrunken log2 fold change. Which class for RRIRCRPPRLPRPRPRPHYAPRP ?
LOW

Place this sequence in its band: RRIRLRPPRLPRPRPRPFAGPRP
MEDIUM

Which class holds RRIRARPPRLPRPRPRPWGFPRP ?
HIGH

Lab note: which band did RRIRQRPPRLPRPRPRPTDLPRP land in?
HIGH
